# System: DLD-1
# measurement.notes: NCI tumour cell line growth inhibition, 48 h
The source made the active and inactive calls. Cut-off read from the data, not from the text of the source: active = GI50 up to about 1.1 µM and inactive = higher.
observation.type: GI50

Kindly state the measured GI50 obtained for COC(=O)C(C(=O)C(=O)Nc1nc2ccc(OC)cc2s1)c1cnc2ccccc2n1 (stereo unspecified) with DLD-1.
> 100 µM (inactive)

Kindly state the measured GI50 obtained for `COc1ccc2[nH]c(=O)cc(C)c2c1[N+](=O)[O-]` with DLD-1.
84.1 µM (inactive)

Kindly state the measured GI50 obtained for Cc1ccc2[nH]c(=O)c(C(C#N)c3ccccc3)nc2c1 (stereo unspecified) with DLD-1.
42.6 µM (inactive)

Kindly state the measured GI50 obtained for `CN(C)/N=N/c1[nH]cnc1C(N)=O` with DLD-1.
56.9 µM (inactive)

Kindly state the measured GI50 obtained for `O=C(N[C@H](CO)[C@H](O)c1ccc([N+](=O)[O-])cc1)C(Cl)Cl` with DLD-1.
> 100 µM (inactive)

Kindly state the measured GI50 obtained for `O=C(Nc1nc2ncn(CCNCCn3cnc4nc(NC(=O)c5ccccc5)[nH]c(=O)c43)c2c(=O)[nH]1)c1ccccc1` with DLD-1.
> 100 µM (inactive)

Kindly state the measured GI50 obtained for COc1ccc(NC(=O)C(=O)C2CNC(=O)NC2=O)c(OC)c1 (stereo unspecified) with DLD-1.
> 100 µM (inactive)

Kindly state the measured GI50 obtained for CCC(C(=O)O)c1ccc(OCc2ccccc2)cc1 (stereo unspecified) with DLD-1.
> 100 µM (inactive)

Kindly state the measured GI50 obtained for `O=C(O)CN(c1ccccc1)S(=O)(=O)c1ccc(Cl)cc1` with DLD-1.
> 100 µM (inactive)

Kindly state the measured GI50 obtained for `Cc1nc2c(nc1C)C(=O)c1ccccc1C2=O` with DLD-1.
14.9 µM (inactive)

Kindly state the measured GI50 obtained for `O=CNc1cccc2c3c([nH]c12)CCCCCC3` with DLD-1.
> 100 µM (inactive)
